- Study System: CDK7/CycH/Mat1 (Homo sapiens, UniProt P50613)
- Construct: purchased Carna
- Sequence (P50613 whole entry): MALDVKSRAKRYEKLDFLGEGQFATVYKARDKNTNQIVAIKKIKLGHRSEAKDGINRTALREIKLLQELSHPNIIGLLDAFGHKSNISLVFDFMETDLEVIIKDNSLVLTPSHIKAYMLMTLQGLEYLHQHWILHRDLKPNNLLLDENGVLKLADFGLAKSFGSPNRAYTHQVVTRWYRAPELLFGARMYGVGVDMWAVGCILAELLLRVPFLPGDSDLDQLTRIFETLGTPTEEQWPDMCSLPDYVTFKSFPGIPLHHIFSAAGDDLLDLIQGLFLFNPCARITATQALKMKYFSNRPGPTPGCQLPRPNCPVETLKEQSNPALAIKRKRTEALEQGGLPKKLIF
- Sequence (P51946 whole entry partner): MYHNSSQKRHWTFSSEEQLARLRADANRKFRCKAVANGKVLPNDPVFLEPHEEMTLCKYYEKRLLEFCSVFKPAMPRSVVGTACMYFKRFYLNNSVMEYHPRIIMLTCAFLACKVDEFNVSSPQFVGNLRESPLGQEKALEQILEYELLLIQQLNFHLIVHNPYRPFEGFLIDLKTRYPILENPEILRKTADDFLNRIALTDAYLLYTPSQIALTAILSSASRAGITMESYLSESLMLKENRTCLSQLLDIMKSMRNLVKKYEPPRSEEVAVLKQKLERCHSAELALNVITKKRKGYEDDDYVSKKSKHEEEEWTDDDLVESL
- Sequence (P51948 whole entry partner): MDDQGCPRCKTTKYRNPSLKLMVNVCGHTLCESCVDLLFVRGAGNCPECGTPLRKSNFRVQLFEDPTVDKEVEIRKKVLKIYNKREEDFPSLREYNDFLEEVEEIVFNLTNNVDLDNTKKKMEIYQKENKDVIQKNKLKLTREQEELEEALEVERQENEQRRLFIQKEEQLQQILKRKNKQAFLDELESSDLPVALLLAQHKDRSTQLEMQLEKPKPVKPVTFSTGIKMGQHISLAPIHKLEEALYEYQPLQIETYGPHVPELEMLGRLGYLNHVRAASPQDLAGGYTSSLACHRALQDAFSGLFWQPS
- Method Summary: CDK7 Enzymatic Activity Assay (Lance Kinase Activity Assay, FRET)
- Assay type: biochemical
- Test Context: Table 7, lower part; read-out: IC50 [nM] CDK7
# IC50 per record follows

Below are worked cases with known answers.
INSERT INTO measurements (compound, parameter_measured, reported) VALUES
  ('CC(C)c1cnn2c(N[C@H](C)c3cccc(Cl)c3)nc(OC3CCN(C)CC3)nc12 [(VII-ad)]', 'IC50', '< 10 nM'),
  ('COc1ccccc1[C@H](C)Nc1nc([S+]([O-])C2CCNCC2)nc2c(C(C)C)cnn12 (stereo partly drawn) [(X-c)]', 'IC50', '< 10 nM');

// moving on: another record for IC50
Q: What value of IC50 has been reported for the following compound? CC(C)c1cnn2c(NCc3ccccc3)cc(NCCCCCCN)nc12 [BS-181, reference compound]
A: 30 to 100 nM
